target or test system: PDLIM1, O00151
Sequence (O00151 1-87): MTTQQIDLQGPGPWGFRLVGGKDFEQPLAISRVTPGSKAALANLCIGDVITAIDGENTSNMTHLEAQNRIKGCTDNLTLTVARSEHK
protocol details: holdup assay
Design: key: below the threshold = too weak to quantify, mostly under pKd 3.1 to 4
condition parameters: plain residues with an end cap or a label only (N-terminal biotin on a linker: ado-ado)
reported property: pKd

Here is how some binders turned out for pKd.
| binder | pKd |
| --- | --- |
| AEASVACSLC [PTGIR, P43119] | below the threshold |
| ARGPPRESEV [FAM110D, Q8TAY7] | 3.71 |
| PYPTADHMLA [JUP, P14923] | below the threshold |
| MQHQRTHTRV [ZSCAN30, Q86W11] | below the threshold |
| NVYGIESVKI [GRIA2, P42262] | below the threshold |
| EPQYQPGENL [SRC, P12931] | 3.56 |

Could you report pKd for every entry in the following list?
1. PSVGSKKTVL [REELD1, A0A1B0GV85]
2. MHIQEKGFHV [EPHA6, Q9UF33]

Response:
["below the threshold", "below the threshold"]
